Reference source for all entries: BigSolDB 2.1

details: in methyl acetate, 316.95 K
endpoint: solubility (mole fraction)
Hey, just send me the number, nothing else.

## Input Entry under review: `O=S(=O)(c1ccccc1)N(F)S(=O)(=O)c1ccccc1` . Reported solubility (mole fraction)?
## Output 0.126

###

conditions: in ethanol, 312.55 K
endpoint: solubility (mole fraction)

## Input Entry under review: `O=S(=O)(c1ccccc1)N(F)S(=O)(=O)c1ccccc1` . Reported solubility (mole fraction)?
## Output 0.00417

###

details: in ethyl formate, 302.65 K
endpoint: solubility (mole fraction)
Hey, just send me the number, nothing else.

## Input Entry under review: `O=S(=O)(c1ccccc1)N(F)S(=O)(=O)c1ccccc1` . Reported solubility (mole fraction)?
## Output 0.0619

###

settings: in methyl acetate, 297.95 K
endpoint: solubility (mole fraction)
Hey, just send me the number, nothing else.

## Input Entry under review: `O=S(=O)(c1ccccc1)N(F)S(=O)(=O)c1ccccc1` . Reported solubility (mole fraction)?
## Output 0.0681

###

settings: in 2-butanone, 307.35 K
endpoint: solubility (mole fraction)
Hey, just send me the number, nothing else.

## Input Entry under review: `O=S(=O)(c1ccccc1)N(F)S(=O)(=O)c1ccccc1` . Reported solubility (mole fraction)?
## Output 0.0978

###

conditions: in n-pentanol, 273.35 K
endpoint: solubility (mole fraction)
Hey, just send me the number, nothing else.

## Input Entry under review: `O=S(=O)(c1ccccc1)N(F)S(=O)(=O)c1ccccc1` . Reported solubility (mole fraction)?
## Output 0.000465

###

settings: in ethyl acetate, 316.95 K
endpoint: solubility (mole fraction)

## Input Entry under review: `O=S(=O)(c1ccccc1)N(F)S(=O)(=O)c1ccccc1` . Reported solubility (mole fraction)?
## Output 0.103

###

settings: in acetonitrile, 302.65 K
endpoint: solubility (mole fraction)
Hey, just send me the number, nothing else.

## Input Entry under review: `O=S(=O)(c1ccccc1)N(F)S(=O)(=O)c1ccccc1` . Reported solubility (mole fraction)?
## Output 0.0422

###

settings: in ethyl acetate, 322.85 K
endpoint: solubility (mole fraction)

## Input Entry under review: `O=S(=O)(c1ccccc1)N(F)S(=O)(=O)c1ccccc1` . Reported solubility (mole fraction)?
## Output 0.119

###

conditions: in toluene, 278.35 K
endpoint: solubility (mole fraction)
Hey, just send me the number, nothing else.

## Input Entry under review: `O=S(=O)(c1ccccc1)N(F)S(=O)(=O)c1ccccc1` . Reported solubility (mole fraction)?
## Output 0.0145

###

conditions: in isopropanol, 316.95 K
endpoint: solubility (mole fraction)

## Input Entry under review: `O=S(=O)(c1ccccc1)N(F)S(=O)(=O)c1ccccc1` . Reported solubility (mole fraction)?
## Output 0.0041

###

conditions: in 2-pentanone, 292.85 K
endpoint: solubility (mole fraction)
Hey, just send me the number, nothing else.

## Input Entry under review: `O=S(=O)(c1ccccc1)N(F)S(=O)(=O)c1ccccc1` . Reported solubility (mole fraction)?
## Output 0.0628

###

details: in acetonitrile, 307.35 K
endpoint: solubility (mole fraction)
Hey, just send me the number, nothing else.

## Input Entry under review: `O=S(=O)(c1ccccc1)N(F)S(=O)(=O)c1ccccc1` . Reported solubility (mole fraction)?
## Output 0.0528

###

settings: in n-butanol, 288.35 K
endpoint: solubility (mole fraction)
Hey, just send me the number, nothing else.

## Input Entry under review: `O=S(=O)(c1ccccc1)N(F)S(=O)(=O)c1ccccc1` . Reported solubility (mole fraction)?
## Output 0.00117

###

conditions: in ethanol, 297.95 K
endpoint: solubility (mole fraction)
Hey, just send me the number, nothing else.

## Input Entry under review: `O=S(=O)(c1ccccc1)N(F)S(=O)(=O)c1ccccc1` . Reported solubility (mole fraction)?
## Output 0.00214

###

settings: in methyl acetate, 273.35 K
endpoint: solubility (mole fraction)

## Input Entry under review: `O=S(=O)(c1ccccc1)N(F)S(=O)(=O)c1ccccc1` . Reported solubility (mole fraction)?
## Output 0.0285

###

settings: in methyl acetate, 288.35 K
endpoint: solubility (mole fraction)
Hey, just send me the number, nothing else.

## Input Entry under review: `O=S(=O)(c1ccccc1)N(F)S(=O)(=O)c1ccccc1` . Reported solubility (mole fraction)?
## Output 0.0492

###

conditions: in isopentanol, 307.35 K
endpoint: solubility (mole fraction)

## Input Entry under review: `O=S(=O)(c1ccccc1)N(F)S(=O)(=O)c1ccccc1` . Reported solubility (mole fraction)?
## Output 0.00238

###

details: in 2-pentanone, 312.55 K
endpoint: solubility (mole fraction)

## Input Entry under review: `O=S(=O)(c1ccccc1)N(F)S(=O)(=O)c1ccccc1` . Reported solubility (mole fraction)?
## Output 0.113

###

conditions: in 2-butanone, 297.95 K
endpoint: solubility (mole fraction)
Hey, just send me the number, nothing else.

## Input Entry under review: `O=S(=O)(c1ccccc1)N(F)S(=O)(=O)c1ccccc1` . Reported solubility (mole fraction)?
## Output 0.0734

###

conditions: in ethyl acetate, 283.35 K
endpoint: solubility (mole fraction)

## Input Entry under review: `O=S(=O)(c1ccccc1)N(F)S(=O)(=O)c1ccccc1` . Reported solubility (mole fraction)?
## Output 0.0353

###

details: in n-butanol, 292.85 K
endpoint: solubility (mole fraction)
Hey, just send me the number, nothing else.

## Input Entry under review: `O=S(=O)(c1ccccc1)N(F)S(=O)(=O)c1ccccc1` . Reported solubility (mole fraction)?
## Output 0.00147

###

settings: in ethanol, 307.35 K
endpoint: solubility (mole fraction)

## Input Entry under review: `O=S(=O)(c1ccccc1)N(F)S(=O)(=O)c1ccccc1` . Reported solubility (mole fraction)?
## Output 0.00331

###

details: in isopropanol, 297.95 K
endpoint: solubility (mole fraction)

## Input Entry under review: `O=S(=O)(c1ccccc1)N(F)S(=O)(=O)c1ccccc1` . Reported solubility (mole fraction)?
## Output 0.00186

###

conditions: in ethyl formate, 292.85 K
endpoint: solubility (mole fraction)
Hey, just send me the number, nothing else.

## Input Entry under review: `O=S(=O)(c1ccccc1)N(F)S(=O)(=O)c1ccccc1` . Reported solubility (mole fraction)?
## Output 0.0441

###

conditions: in isopentanol, 312.55 K
endpoint: solubility (mole fraction)
Hey, just send me the number, nothing else.

## Input Entry under review: `O=S(=O)(c1ccccc1)N(F)S(=O)(=O)c1ccccc1` . Reported solubility (mole fraction)?
## Output 0.00312

###

settings: in ethyl acetate, 297.95 K
endpoint: solubility (mole fraction)

## Input Entry under review: `O=S(=O)(c1ccccc1)N(F)S(=O)(=O)c1ccccc1` . Reported solubility (mole fraction)?
## Output 0.0568

###

conditions: in methyl acetate, 278.35 K
endpoint: solubility (mole fraction)
Hey, just send me the number, nothing else.

## Input Entry under review: `O=S(=O)(c1ccccc1)N(F)S(=O)(=O)c1ccccc1` . Reported solubility (mole fraction)?
## Output 0.0346

###

details: in n-pentanol, 283.35 K
endpoint: solubility (mole fraction)
Hey, just send me the number, nothing else.

## Input Entry under review: `O=S(=O)(c1ccccc1)N(F)S(=O)(=O)c1ccccc1` . Reported solubility (mole fraction)?
## Output 0.000843

###

details: in acetonitrile, 288.35 K
endpoint: solubility (mole fraction)
Hey, just send me the number, nothing else.

## Input Entry under review: `O=S(=O)(c1ccccc1)N(F)S(=O)(=O)c1ccccc1` . Reported solubility (mole fraction)?
## Output 0.021

###

conditions: in ethyl formate, 316.95 K
endpoint: solubility (mole fraction)

## Input Entry under review: `O=S(=O)(c1ccccc1)N(F)S(=O)(=O)c1ccccc1` . Reported solubility (mole fraction)?
## Output 0.0992

###

conditions: in 2-butanone, 273.35 K
endpoint: solubility (mole fraction)
Hey, just send me the number, nothing else.

## Input Entry under review: `O=S(=O)(c1ccccc1)N(F)S(=O)(=O)c1ccccc1` . Reported solubility (mole fraction)?
## Output 0.0332

###

conditions: in n-butanol, 316.95 K
endpoint: solubility (mole fraction)
Hey, just send me the number, nothing else.

## Input Entry under review: `O=S(=O)(c1ccccc1)N(F)S(=O)(=O)c1ccccc1` . Reported solubility (mole fraction)?
## Output 0.00433

###

conditions: in isobutanol, 288.35 K
endpoint: solubility (mole fraction)

## Input Entry under review: `O=S(=O)(c1ccccc1)N(F)S(=O)(=O)c1ccccc1` . Reported solubility (mole fraction)?
## Output 0.000545

###

conditions: in ethanol, 302.65 K
endpoint: solubility (mole fraction)
Hey, just send me the number, nothing else.

## Input Entry under review: `O=S(=O)(c1ccccc1)N(F)S(=O)(=O)c1ccccc1` . Reported solubility (mole fraction)?
## Output 0.00268

###

conditions: in isobutanol, 278.35 K
endpoint: solubility (mole fraction)
Hey, just send me the number, nothing else.

## Input Entry under review: `O=S(=O)(c1ccccc1)N(F)S(=O)(=O)c1ccccc1` . Reported solubility (mole fraction)?
## Output 0.000265
